Attribution: patent US12139492B2

Molecular target: BTK (Homo sapiens, UniProt Q06187)
Sequence (Q06187 whole entry): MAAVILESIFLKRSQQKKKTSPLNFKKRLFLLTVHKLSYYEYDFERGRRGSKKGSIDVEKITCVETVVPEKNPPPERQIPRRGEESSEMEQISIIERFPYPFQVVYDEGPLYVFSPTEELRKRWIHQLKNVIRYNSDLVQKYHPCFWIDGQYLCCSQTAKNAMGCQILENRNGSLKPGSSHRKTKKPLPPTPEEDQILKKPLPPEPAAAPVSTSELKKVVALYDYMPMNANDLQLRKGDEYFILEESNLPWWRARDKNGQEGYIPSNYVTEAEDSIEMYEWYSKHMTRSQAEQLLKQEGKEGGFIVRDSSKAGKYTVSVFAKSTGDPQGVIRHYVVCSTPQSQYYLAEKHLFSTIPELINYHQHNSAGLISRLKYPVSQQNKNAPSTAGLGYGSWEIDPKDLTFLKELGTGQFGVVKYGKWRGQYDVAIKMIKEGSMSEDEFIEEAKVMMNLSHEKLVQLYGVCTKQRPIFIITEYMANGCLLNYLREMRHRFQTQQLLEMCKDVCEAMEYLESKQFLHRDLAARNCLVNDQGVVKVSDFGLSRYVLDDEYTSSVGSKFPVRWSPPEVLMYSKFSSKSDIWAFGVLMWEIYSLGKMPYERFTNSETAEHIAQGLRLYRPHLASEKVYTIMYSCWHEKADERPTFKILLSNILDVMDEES
Test: Degradation of BTK protein in Namalwa cells (Western blot; DC50, Dmax)
Details: BTK degradation; cell line not given
measured metric: DC50

Q: Name the recorded DC50 for Nc1ncnc2c1c(-c1ccc(Oc3ccccc3)cc1)nn2C1CCN(C2CCN(CCCN3CCN(c4ccc5c(c4)C(=O)N(C4CCC(=O)NC4=O)C5=O)CC3)CC2)CC1 (stereo not shown) .
A: 10 to 50 nM

Q: Need DC50 of Nc1ncnc2c1c(-c1ccc(Oc3ccccc3)cc1)nn2[C@@H]1CCCN(C2CCN(C(=O)N3CCC(CCCC4CCN(c5ccc6c(c5)C(=O)N(C5CCC(=O)NC5=O)C6=O)CC4)CC3)CC2)C1 (stereo partly shown) , thanks.
A: > 50 nM

Q: Entry Nc1ncnc2c1c(-c1ccc(Oc3ccccc3)cc1)nn2C1CCN(C2CCN(C(=O)N3CCC(N4CCC(c5ccc6c(c5)C(=O)N(C5CCC(=O)NC5=O)C6=O)CC4)CC3)CC2)CC1 (stereo not shown) : reported DC50 = ?
A: 10 to 50 nM

Q: What does the data say about its DC50? Entry: NC(=O)c1c(-c2ccc(Oc3ccccc3)cc2)nn2c1NCCC2C1CCN(CC2CCN(C(=O)N3CCC(CC4CCN(c5ccc6c(c5)CN(C5CCC(=O)NC5=O)C6=O)CC4)CC3)CC2)CC1 (stereo not shown)
A: 10 to 50 nM

Q: Suppose we examine the compound NC(=O)c1c(-c2ccc(Oc3ccccc3)cc2)nn2c1NCCC2C1CCN(C(=O)N2CCC(CCN3CCC(c4ccc5c(c4)CN(C4CCC(=O)NC4=O)C5=O)CC3)CC2)CC1 (stereo not shown) ; what DC50 value has been reported?
A: > 50 nM

Q: Given NC(=O)c1c(-c2ccc(Oc3ccccc3)cc2)nn2c1NCC[C@H]2C1CCN(C(=O)N2CCN(CC3CCN(c4ccc5c(c4)CN(C4CCC(=O)NC4=O)C5=O)CC3)CC2)CC1 (stereo partly shown) , state its recorded DC50.
A: < 10 nM

Q: Any idea what its DC50 is? The compound is NC(=O)c1c(-c2ccc(Oc3ccccc3)cc2)nn2c1NCCC2C1CCN(C2CCN(C(=O)N3CCC(N4CCC(c5ccc6c(c5)CN(C5CCC(=O)NC5=O)C6=O)CC4)CC3)CC2)CC1 (stereo not shown)
A: < 10 nM

Q: Which DC50 is listed for NC(=O)c1c(-c2ccc(Oc3ccccc3)cc2)nn2c1NCCC2C1CCN(C2CCN(C(=O)N3CCC(CN4CCC(c5ccc6c(c5)C(=O)N(C5CCC(=O)NC5=O)C6=O)CC4)CC3)CC2)CC1 (stereo not shown) ?
A: < 10 nM

Q: What value of DC50 has been recorded for this entry: Nc1ncnc2c1c(-c1ccc(Oc3ccccc3)cc1)nn2C1CCN(CC2CCN(CCC3CCN(c4ccc5c(c4)C(=O)N(C4CCC(=O)NC4=O)C5=O)CC3)CC2)CC1 (stereo not shown)
A: 10 to 50 nM

Q: Quick one: DC50 of Nc1ncnc2c1c(-c1ccc(Oc3ccccc3)cc1)nn2C1CCN(C2CCN(C(=O)N3CCN(c4ccc5c(c4)CN(C4CCC(=O)NC4=O)C5=O)CC3)CC2)CC1 (stereo not shown) ?
A: > 50 nM
